Below is a list of entries, each paired with its recorded normalized growth value.
Assay explanation: chemical genetic growth profiling, strain panel (AID 1159580);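 note: tested at 20 µM; growth read once vehicle control cultures reached saturation at 30 °C; 1 = growth at the plate median or of vehicle wells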
Stated conditions: S. cerevisiae deletion strains, growth OD, locus YLR058C, strain SHM2 (second series), stronger effect = lower value
Screen size: about 5,500 compounds; about 2,000 (36%) were called active. Roughly 18% stayed inconclusive and do not appear here. The list shows a part of the results.
Hey, just send me the number, nothing else.

Example cases with answers are listed next.
- Compound: "Cc1onc(NC(=O)NC(=O)c2c(F)cccc2Cl)c1Br"
  Readout kind: "normalized growth"
  Observed: 1
- Compound: "O=C(NC(=S)Nc1ccccn1)c1ccccc1"
  Readout kind: "normalized growth"
  Observed: 0.976
- Compound: "O=C1OC2COC(=O)C2C=C1NC(=O)c1ccc(Cl)cc1 (configuration not stated)"
  Readout kind: "normalized growth"
  Observed: 0.506
- Compound: "O=C(NNC(=S)Nc1ccc(F)cc1)c1ccccc1Cl"
  Readout kind: "normalized growth"
  Observed: 0.98
- Compound: "COc1ccc(OC)c(S(=O)(=O)N2CCc3cc(OC)c(OC)cc3C2C)c1 (configuration not stated)"
  Readout kind: "normalized growth"
  Observed: 1.02

Now let's try a different one.
Data request: If you can, please state the reported normalized growth value of `O=S(=O)(N/N=C\c1ccc(Cl)cc1)c1ccc(-c2ccccn2)s1` .
Data returned: 0.996

----------
Assay explanation: chemical genetic growth profiling, strain panel (AID 1159580)
Stated conditions: S. cerevisiae deletion strains, growth OD, locus YOR061W, strain CKA2, stronger effect = lower value
In all, about 5,500 compounds went through this assay and about 2,000 (36%) were called active. Not shown: some 18% with an inconclusive outcome. Some of the results follow.
Readout kind: normalized growth
// response body must contain only the number

- Molecule: "c1ccc2c3c([nH]c2c1)CNCC3"
  normalized growth: 0.998
- Molecule: "Cc1occc(=O)c1O"
  normalized growth: 1.01
- Molecule: "CNC[C@@H](O)c1ccc(O)c(O)c1"
  normalized growth: 0.967
- Molecule: "O=C(NC(=S)Nc1cccc(C(F)(F)F)c1)c1ccc2nonc2c1"
  normalized growth: 0.967
- Molecule: "CCN(CC)CCNC(=O)c1cc(S(C)(=O)=O)ccc1OC"
  normalized growth: 1.01
- Molecule: "FC(F)(F)c1cccc(NNC(=S)Nc2ccccc2)c1"
  normalized growth: 0.856
- Molecule: "Cc1cc(Br)ccc1-n1c(Sc2c([N+](=O)[O-])cc(C(F)(F)F)cc2[N+](=O)[O-])nc2ccccc2c1=O"
  normalized growth: 0.937
- Molecule: "CCC(Cc1c(I)cc(I)c(N)c1I)C(=O)O (stereo unspecified)"
  normalized growth: 0.997

Data request: # lookup: normalized growth of `Nc1ccc(C(=O)NCC(=O)O)cc1`
Data returned: 1.01

----------
Assay explanation: chemical genetic growth profiling, strain panel (AID 1159580)
Stated conditions: S. cerevisiae deletion strains, growth OD, locus YBL061C, strain skt5
Hit rate of the full screen: of about 5,500 compounds, about 2,000 (36%) were called active. Inconclusive results (about 18%) are left out. Cut-off read from the data, not from the text of the source: active = normalized growth mostly below about 0.91 (no sharp cut-off); inconclusive = no clear call, values can overlap the other calls; inactive = mostly above about 0.92. The list shows a part of the results.
Outcomes you can answer with include only these: yes (1) for active, no (0) for inactive

- Compound: "O[N+]1=CC=CCC1=S.On1ccccc1=S.[Zn]"
  Label class: "yes (1)"

Data request: # fetch the recorded call for `CC(=O)Nc1ccc(S(=O)(=O)c2ccc(NC(C)=O)cc2)cc1` here
Data returned: no (0)

Data request: How did this test come out for `C=C(C)[C@H]1CC=C(C(=O)O)CC1` ?
Data returned: no (0)

Data request: I'd appreciate the recorded outcome for `Nc1ncnc2c1ncn2[C@@H]1O[C@H](CO)[C@@H](O)[C@H]1O` from this test.
Data returned: no (0)

Data request: Give the logged outcome of this assay for the following compound: CC(=O)c1c(O)c(C)c(O)c2c1OC1=CC(=O)C(C(C)=O)C(=O)C12C (stereo unspecified)
Data returned: no (0)

Data request: Could you kindly confirm the outcome this assay logged for `OC[C@@H](O)[C@@H](O[C@@H]1O[C@H](CO)[C@@H](O)[C@H](O)[C@H]1O)[C@H](O)[C@@H](O)CO` ?
Data returned: no (0)

Data request: Recorded test call requested for O=C1C=CC2=C3c4cc(O)c(O)cc4CC3(O)COC2=C1O (stereo unspecified)
Data returned: no (0)

----------
Assay explanation: chemical genetic growth profiling, strain panel (AID 1159580);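 note: tested at 20 µM; growth read once vehicle control cultures reached saturation at 30 °C; 1 = growth at the plate median or of vehicle wells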
Stated conditions: S. cerevisiae deletion strains, growth OD, locus YLR262C, strain YPT6 (second series), stronger effect = lower value
The whole screen tested about 5,500 compounds, of which about 2,000 (36%) were called active. Not shown: some 18% with an inconclusive outcome. The list shows a part of the results.
Criterion: normalized growth strictly less than 1. Met: True. Not met: False.

- Sample smiles: "C1CCN2C[C@@H]3C[C@H](CN4CCCC[C@@H]34)[C@H]2C1"
  Label class: "False"

Now look at this one.
Data request: State whether 1 exceeds normalized growth recorded for `Cc1ccsc1/C=C/C1=NCCCN1C` .
Data returned: True

----------
Assay explanation: chemical genetic growth profiling, strain panel (AID 1159580);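 note: tested at 20 µM; growth read once vehicle control cultures reached saturation at 30 °C; 1 = growth at the plate median or of vehicle wells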
Stated conditions: S. cerevisiae deletion strains, growth OD, locus YNR049C, strain mso1, stronger effect = lower value
Hit rate of the full screen: of about 5,500 compounds, about 2,000 (36%) were called active. Not shown: some 18% with an inconclusive outcome. The list shows a part of the results.
Readout kind: normalized growth
Number only, please.

- Molecule: "COC(C)(C)CCC[C@H](C)C/C=C/C(C)=C/C(=O)OC(C)C"
  normalized growth: 1.02
- Molecule: "CCCCC(CC)CN1CN(CC(CC)CCCC)CC(C)(N)C1 (stereo unspecified)"
  normalized growth: 0.0593
- Molecule: "COc1ccccc1OCCNCC(O)COc1cccc2[nH]c3ccccc3c12 (stereo unspecified)"
  normalized growth: 1.01
- Molecule: "CCOP(=S)(OCC)SCn1c(=O)oc2cc(Cl)ccc21"
  normalized growth: 0.961
- Molecule: "CCN(CC)CCOc1ccc2c(c1)C(=O)c1cc(OCCN(CC)CC)ccc1-2"
  normalized growth: 0.968

// next item, normalized growth requested
Data request: Can you share its normalized growth? I mean this molecule: C=CC(C1=CC(=O)C(OC)=CC1=O)c1ccc(O)cc1 (stereo unspecified)
Data returned: 1.01

----------
Assay explanation: chemical genetic growth profiling, strain panel (AID 1159580);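 note: tested at 20 µM; growth read once vehicle control cultures reached saturation at 30 °C; 1 = growth at the plate median or of vehicle wells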
Stated conditions: S. cerevisiae deletion strains, growth OD, locus YNL250W, strain rad50
The whole screen tested about 5,500 compounds, of which about 2,000 (36%) were called active. Roughly 18% stayed inconclusive and do not appear here. Cut-off read from the data, not from the text of the source: active = normalized growth mostly below about 0.91 (no sharp cut-off); inconclusive = no clear call, values can overlap the other calls; inactive = mostly above about 0.92. The list shows a part of the results.
Can you answer with just one of these options? Y = active, N = inactive

Example results:
- Molecule: "Oc1ccc(Cl)c2cccnc12"
  Label class: "Y"
- Molecule: "O=C(O)CCCCC1CCSS1 (stereo not given)"
  Label class: "N"
- Molecule: "Nc1ccc(C(=O)NCC(=O)O)cc1"
  Label class: "N"
- Molecule: "CC1(C)C(O)CC(O)C2(C)C1CC(O)C1(C)C2CCC2(C)C(c3ccoc3)CC3OC321 (stereo not given)"
  Label class: "N"
- Molecule: "CC(Cc1ccc(O)c(O)c1)C(C)Cc1ccc(O)c(O)c1 (stereo not given)"
  Label class: "N"

Data request: // param item: `COc1cc(C(=O)NCc2ccc(OCCN(C)C)cc2)cc(OC)c1OC` ; yields the recorded call
Data returned: N

Data request: Test call for this molecule, please: `c1ccc2c3c([nH]c2c1)CNCC3`
Data returned: N

Data request: Name the outcome recorded for CC(=O)O[C@@H]1C[C@@]2(C)[C@H](c3ccoc3)C[C@H]3O[C@]32[C@]2(C)C(=O)C(O)=C3C(C)(C)C(=O)C=C[C@]3(C)C12 (stereo not given in full) in the assay.
Data returned: N

Data request: Kindly provide the recorded test outcome for the following molecule: COc1ccccc1OCCNCC(O)COc1cccc2[nH]c3ccccc3c12 (stereo not given)
Data returned: N

Data request: Outcome? `Cc1ccc2cc3c(ccc4ccccc43)c3c2c1CC3`
Data returned: N

Data request: Hey, what did the test say about `C[C@H](N)[C@H](O)c1ccc(O)c(O)c1` ?
Data returned: N

Data request: What is the recorded call for this molecule in the test? CC1(C)C(C(Cl)Cl)C2(Cl)C(Cl)C(Cl)C1(Cl)C2(Cl)Cl (stereo not given)
Data returned: N

Data request: Which outcome was assigned to `c1ccc2c(c1)cc1ccc3cccc4ccc2c1c34` in this test?
Data returned: N

Data request: Please indicate how the test categorized `CC/C(=C(\c1ccccc1)c1ccc(OCCN(C)C)cc1)c1ccccc1` .
Data returned: N

Data request: Answer briefly: the call reported for CC(=O)O[C@@H]1CC2C(C)(C)C=CC(=O)[C@]2(C)C2CC[C@@]3(C)[C@H](c4ccoc4)OC(=O)C4OC43[C@@]21C (stereo not given in full) in this assay.
Data returned: N
